Listed below: IC50 at 3 days values for each entry.
- testDetails: Cytotoxicity against KB cells (sulforhodamine B staining)
- Type: cell-based
- experimentalParameters: human, KB cells (oral epidermoid carcinoma, ATCC CCL-17), starting concentration 20 μg/ml
- Method: Hirsutellones A, B and C were tested for cytotoxicity by incubating with Vero cells (African green monkey kidney cell line from American Type Culture Collection USA; ATCC # CCL-81). […] The numbers of the cells in the wells were then determined by a staining method (Skehan, P., et al., J. Natl Cancer Inst., 82:1107-1112 (1990)). […] The absorbance at 510 nm of test wells was measured by an ELISA microplate reader. The absorbance was proportionate to the number of the viable cells in the wells. […]
Number in µg/mL, nothing else.

compound: C=CC1C=CC2C3CC(C)CCC3C3Oc4ccc(cc4)CC4(O)NC(=O)C5(OC45)C(=O)C1C23 (stereo not shown)
observedValue: 4.6

What IC50 at 3 days value was documented for this compound, Cc1c2ccncc2c(C)c2c1[nH]c1ccccc12 [Ellipticine, reference compound] ?
1.3
